Listing: DC50 of selected molecules
target: IKZF1 (Homo sapiens, UniProt Q13422+Q96SW2); construct: expressed in transfected cells; experiment: HiBiT protein tagging assay, in vitro IKZF1 degradation (HEK293); type: cell-based; conditions: HEK293, 18-24 hr incubation, normalized to DMSO control, read-out: IKZF1 EC50
Sequence (Q13422 whole entry): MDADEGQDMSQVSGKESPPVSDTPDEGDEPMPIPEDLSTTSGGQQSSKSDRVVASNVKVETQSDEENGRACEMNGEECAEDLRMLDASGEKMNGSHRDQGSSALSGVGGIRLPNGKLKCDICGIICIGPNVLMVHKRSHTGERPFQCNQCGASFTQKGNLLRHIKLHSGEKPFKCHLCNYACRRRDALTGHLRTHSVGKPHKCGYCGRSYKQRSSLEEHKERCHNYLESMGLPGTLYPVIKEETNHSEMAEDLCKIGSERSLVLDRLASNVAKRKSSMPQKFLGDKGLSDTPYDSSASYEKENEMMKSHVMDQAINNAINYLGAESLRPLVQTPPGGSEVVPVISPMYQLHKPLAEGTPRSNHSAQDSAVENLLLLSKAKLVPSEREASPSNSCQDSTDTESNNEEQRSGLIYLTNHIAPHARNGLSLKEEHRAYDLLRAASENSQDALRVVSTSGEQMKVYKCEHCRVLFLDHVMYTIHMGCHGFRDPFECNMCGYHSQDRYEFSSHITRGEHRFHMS
Sequence (Q96SW2 whole entry): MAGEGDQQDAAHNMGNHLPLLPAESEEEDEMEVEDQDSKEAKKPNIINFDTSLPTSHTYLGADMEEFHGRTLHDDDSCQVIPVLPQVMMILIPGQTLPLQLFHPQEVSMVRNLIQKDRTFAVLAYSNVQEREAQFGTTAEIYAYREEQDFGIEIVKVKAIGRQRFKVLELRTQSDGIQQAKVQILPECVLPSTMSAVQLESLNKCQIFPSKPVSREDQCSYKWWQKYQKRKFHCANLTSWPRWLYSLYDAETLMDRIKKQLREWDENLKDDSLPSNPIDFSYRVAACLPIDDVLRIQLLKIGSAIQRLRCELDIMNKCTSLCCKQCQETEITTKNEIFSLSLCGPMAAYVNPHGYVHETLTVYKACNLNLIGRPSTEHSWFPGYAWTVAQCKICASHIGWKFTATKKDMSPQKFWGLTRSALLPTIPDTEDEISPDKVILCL
Sequence (Q16531 whole entry partner): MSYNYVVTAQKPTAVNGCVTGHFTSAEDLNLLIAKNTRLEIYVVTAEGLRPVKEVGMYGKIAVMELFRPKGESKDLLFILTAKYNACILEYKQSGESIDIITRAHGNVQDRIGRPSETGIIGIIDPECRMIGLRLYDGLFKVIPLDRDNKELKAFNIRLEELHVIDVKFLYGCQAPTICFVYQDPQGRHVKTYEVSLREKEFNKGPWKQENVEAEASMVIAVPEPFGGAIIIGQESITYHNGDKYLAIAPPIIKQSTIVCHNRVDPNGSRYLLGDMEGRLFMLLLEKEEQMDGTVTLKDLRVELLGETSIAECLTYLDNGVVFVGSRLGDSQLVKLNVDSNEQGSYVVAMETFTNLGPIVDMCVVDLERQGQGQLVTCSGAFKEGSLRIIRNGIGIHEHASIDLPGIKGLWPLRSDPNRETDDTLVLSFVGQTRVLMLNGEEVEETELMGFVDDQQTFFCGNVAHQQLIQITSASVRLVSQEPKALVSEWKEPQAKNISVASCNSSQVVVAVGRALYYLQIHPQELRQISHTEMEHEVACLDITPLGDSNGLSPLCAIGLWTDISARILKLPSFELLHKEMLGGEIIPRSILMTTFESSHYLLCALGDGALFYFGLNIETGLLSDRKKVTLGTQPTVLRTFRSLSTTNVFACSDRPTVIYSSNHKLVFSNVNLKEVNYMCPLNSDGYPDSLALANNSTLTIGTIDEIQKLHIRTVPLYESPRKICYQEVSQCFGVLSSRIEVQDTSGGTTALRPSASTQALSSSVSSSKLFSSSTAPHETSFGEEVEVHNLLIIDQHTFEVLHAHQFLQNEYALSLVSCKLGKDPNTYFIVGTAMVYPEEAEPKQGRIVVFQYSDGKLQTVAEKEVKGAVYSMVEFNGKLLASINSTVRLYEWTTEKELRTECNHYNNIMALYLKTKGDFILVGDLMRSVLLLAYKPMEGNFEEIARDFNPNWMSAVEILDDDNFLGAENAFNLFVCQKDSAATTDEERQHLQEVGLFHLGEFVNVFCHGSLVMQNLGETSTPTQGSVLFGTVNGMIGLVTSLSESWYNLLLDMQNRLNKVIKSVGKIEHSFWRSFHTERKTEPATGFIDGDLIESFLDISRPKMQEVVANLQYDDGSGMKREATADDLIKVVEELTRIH
Just the number plus its unit, please.

Example results:
[
  {
    "molecule": "CC1(NCc2ccc3c(c2)CN(C2CCC(=O)NC2=O)C3=O)CCCC1 (stereo not shown)",
    "DC50": "172 nM"
  },
  {
    "molecule": "C[C@H]1CCCC[C@H]1NCc1ccc2c(c1)CN(C1CCC(=O)NC1=O)C2=O (stereo partly shown)",
    "DC50": "1700 nM"
  },
  {
    "molecule": "O=C1CCC(N2Cc3cc(CN[C@@H]4CCCN(Cc5ccc(Cl)cc5)C4)ccc3C2=O)C(=O)N1 (stereo partly shown)",
    "DC50": "1 nM"
  }
]

Next molecule, DC50 to be filled in.
// fetch DC50 given entry O=C1CCC(N2Cc3cc(CNCCCO)ccc3C2=O)C(=O)N1 (stereo not shown)
394 nM

---

target: IKZF1 (Homo sapiens, UniProt Q13422+Q96SW2); construct: expressed in transfected cells; assay: HiBiT protein tagging assay, in vitro IKZF1 degradation (HEK293); type: cell-based; conditions: HEK293, 18-24 hr incubation, normalized to DMSO control, read-out: IKZF1 EC50
Listing: DC50 of selected compounds
Provide only the numeric value, understood in nM.

Example results:
[
  {
    "compound": "O=C1CCC(N2Cc3cc(CN[C@@H]4CCCC[C@H]4OCc4ccccc4)ccc3C2=O)C(=O)N1 (stereo partly shown)",
    "endpointUnit": "nM",
    "DC50": 151
  },
  {
    "compound": "O=C1CCC(N2Cc3cc(CNC4CCC5(CCc6ccccc65)CC4)ccc3C2=O)C(=O)N1 (stereo not shown)",
    "endpointUnit": "nM",
    "DC50": 52
  },
  {
    "compound": "O=C1CCC(N2Cc3cc(CNC4CC5CCC4C5)ccc3C2=O)C(=O)N1 (stereo not shown)",
    "endpointUnit": "nM",
    "DC50": 85
  },
  {
    "compound": "CC1(NCc2ccc3c(c2)CN(C2CCC(=O)NC2=O)C3=O)CCCCC1 (stereo not shown)",
    "endpointUnit": "nM",
    "DC50": 96
  },
  {
    "compound": "O=C1CCC(N2Cc3cc(CN[C@@H]4CCCC[C@@H]4O)ccc3C2=O)C(=O)N1 (relative stereo)",
    "endpointUnit": "nM",
    "DC50": 153
  }
]

// fetch DC50 given entry O=C1CCC(N2Cc3cc(CNC4CCN(c5ccccc5)CC4)ccc3C2=O)C(=O)N1 (stereo not shown)
19

// fetch DC50 given entry C[C@H](CO)NCc1ccc2c(c1)CN(C1CCC(=O)NC1=O)C2=O (stereo partly shown)
263

// fetch DC50 given entry O=C1CCC(N2Cc3cc(CN[C@@H]4CCc5ccccc5C4)ccc3C2=O)C(=O)N1 (stereo partly shown)
23

---

biological target: IKZF1 (Homo sapiens, UniProt Q13422+Q96SW2); construct: expressed in transfected cells; assay: HiBiT protein tagging assay, in vitro IKZF1 degradation (HEK293); assay type: cell-based; details: HEK293, 18-24 hr incubation, normalized to DMSO control, read-out: IKZF1 Dmax (maximum degradation at the highest concentration tested)
MET means recorded Dmax is 50% or above; NOT MET means it is below 50%.

As a guide, the following entries are already answered.
[
  {
    "molecule": "O=C1CCC(N2Cc3cc(CN[C@@H]4C[C@@H]5CC[C@H]4C5)ccc3C2=O)C(=O)N1 (some centres unmarked)",
    "categoryLabel": "NOT MET"
  },
  {
    "molecule": "O=C1CCC(N2Cc3cc(CN[C@H]4CCN(Cc5ccccc5)C4)ccc3C2=O)C(=O)N1 (some centres unmarked)",
    "categoryLabel": "NOT MET"
  },
  {
    "molecule": "O=C1CCC(N2Cc3cc(CNC4CCN(Cc5ccccc5)C(=O)C4)ccc3C2=O)C(=O)N1 (centres unmarked)",
    "categoryLabel": "NOT MET"
  },
  {
    "molecule": "O=C1CCC(N2Cc3cc(CN[C@H]4CCc5ccccc5C4)ccc3C2=O)C(=O)N1 (some centres unmarked)",
    "categoryLabel": "NOT MET"
  },
  {
    "molecule": "CO[C@@H]1CCCC[C@H]1NCc1ccc2c(c1)CN(C1CCC(=O)NC1=O)C2=O (some centres unmarked)",
    "categoryLabel": "MET"
  }
]

Dear colleague, could you confirm whether O=C1CCC(N2Cc3cc(CNC4CCCCC4)ccc3C2=O)C(=O)N1 (centres unmarked) has Dmax at or above 50%?
NOT MET

Dear colleague, could you confirm whether O=C1CCC(N2Cc3cc(CNC4CCN(C(=O)OCc5ccccc5)CC4)ccc3C2=O)C(=O)N1 (centres unmarked) has Dmax at or above 50%?
MET

Dear colleague, could you confirm whether O=C1CCC(N2Cc3cc(CN[C@H]4CCCC[C@H]4OCc4ccccc4)ccc3C2=O)C(=O)N1 (some centres unmarked) has Dmax at or above 50%?
MET

---

Target: IKZF1 (Homo sapiens, UniProt Q13422+Q96SW2)
Construct: expressed in transfected cells
Test: HiBiT protein tagging assay, in vitro IKZF1 degradation (HEK293)
Format: cell-based
Conditions: HEK293, 18-24 hr incubation, normalized to DMSO control, read-out: IKZF1 Dmax (maximum degradation at the highest concentration tested)
Method: In vitro degradation of IKZF1 and IKZF2 was measured using HiBiT protein tagging and detection technology (Promega). HiBiT technology (Promega) was used to develop the quantitative assays to measure the cellular IKZFs level by tagging an 11 amino acid HiBit peptides VSGWRLFKKIS (SEQ ID NO:1) to the protein of interest. Reporter plasmids were generated by fusing a linker sequence (GSSGGSSG; SEQ ID NO:2) followed by the HiBiT tag at the C terminus of IKZF1 and IKZF2. […]
Condition met means recorded Dmax is 80% or above; Condition not met means it is below 80%.

[
  {
    "compound": "O=C1CCC(N2Cc3cc(CN[C@@H]4CCCN(CCc5ccccc5)C4)ccc3C2=O)C(=O)N1 (some centres unmarked) [Example 29]",
    "categoryLabel": "Condition not met"
  },
  {
    "compound": "C[C@@H]1[C@H](NCc2ccc3c(c2)CN(C2CCC(=O)NC2=O)C3=O)CCCN1Cc1ccccc1 (some centres unmarked) [Example 106]",
    "categoryLabel": "Condition met"
  },
  {
    "compound": "O=C1CCC(N2Cc3cc(CN[C@@H]4CCCN(Cc5ccc(Cl)cc5)C4)ccc3C2=O)C(=O)N1 (some centres unmarked) [Example 100]",
    "categoryLabel": "Condition met"
  }
]

Dear colleague, could you confirm whether C[C@@H](c1ccccc1)N1CCC[C@@H](NCc2ccc3c(c2)CN(C2CCC(=O)NC2=O)C3=O)C1 (some centres unmarked) [Example 27] has Dmax at or above 80%?
Condition met

Dear colleague, could you confirm whether CCCO[C@H]1CC[C@H](NCc2ccc3c(c2)CN(C2CCC(=O)NC2=O)C3=O)CC1 (some centres unmarked) [Example 75] has Dmax at or above 80%?
Condition not met

Dear colleague, could you confirm whether CC1(C)CCCC(NCc2ccc3c(c2)CN(C2CCC(=O)NC2=O)C3=O)C1 (centres unmarked) [Example 131] has Dmax at or above 80%?
Condition not met

Dear colleague, could you confirm whether O=C1CCC(N2Cc3cc(CNCc4ccccc4)ccc3C2=O)C(=O)N1 (centres unmarked) [Example 33] has Dmax at or above 80%?
Condition not met

Dear colleague, could you confirm whether O=C1CCC(N2Cc3cc(CN[C@H]4CC[C@H](c5ccccc5)CC4)ccc3C2=O)C(=O)N1 (some centres unmarked) [Example 32] has Dmax at or above 80%?
Condition not met

---

target: IKZF2 (Homo sapiens, UniProt Q96SW2+Q9UKS7); construct: expressed in transfected cells; assay: HiBiT protein tagging assay, in vitro IKZF2 degradation (HEK293); format: cell-based; settings: HiBiT assay, HEK293, 18-24 hr incubation, normalized to DMSO control; read-out: IKZF2 EC50
Sequence (Q9UKS7 1-500 isoform Q9UKS7-2): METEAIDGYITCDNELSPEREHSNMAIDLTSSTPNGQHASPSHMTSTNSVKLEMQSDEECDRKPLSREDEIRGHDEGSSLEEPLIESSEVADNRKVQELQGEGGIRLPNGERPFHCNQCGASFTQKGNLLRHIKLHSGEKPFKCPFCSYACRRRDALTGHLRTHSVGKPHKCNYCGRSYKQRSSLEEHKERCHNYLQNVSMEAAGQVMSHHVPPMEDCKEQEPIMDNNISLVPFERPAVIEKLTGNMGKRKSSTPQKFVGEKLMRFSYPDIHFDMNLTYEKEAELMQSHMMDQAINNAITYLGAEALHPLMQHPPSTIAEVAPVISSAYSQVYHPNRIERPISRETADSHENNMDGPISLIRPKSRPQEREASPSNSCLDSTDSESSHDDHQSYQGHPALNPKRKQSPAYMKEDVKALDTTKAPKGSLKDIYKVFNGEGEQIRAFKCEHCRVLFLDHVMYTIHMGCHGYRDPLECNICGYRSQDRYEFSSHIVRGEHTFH
Sequence (Q96SW2 whole entry): as the sequence (Q96SW2 whole entry) above
Sequence (Q16531 whole entry partner): as the sequence (Q16531 whole entry partner) above
endpoint: DC50 (nM)
Provide only the numeric value, understood in nM.

Example results:
[
  {
    "molecule": "O=C1CCC(N2Cc3cc(CNC4CCCC(c5ccccc5)C4)ccc3C2=O)C(=O)N1 (centres unmarked)",
    "endpointUnit": "nM",
    "DC50": 166
  },
  {
    "molecule": "O=C1CCC(N2Cc3cc(CN[C@H]4C[C@@H](O)C4)ccc3C2=O)C(=O)N1 (some centres unmarked)",
    "endpointUnit": "nM",
    "DC50": 2800
  },
  {
    "molecule": "C[C@]1(NCc2ccc3c(c2)CN(C2CCC(=O)NC2=O)C3=O)CCCN(Cc2ccccc2)C1 (some centres unmarked)",
    "endpointUnit": "nM",
    "DC50": 106
  },
  {
    "molecule": "C[C@@H]1CC[C@@H](NCc2ccc3c(c2)CN(C2CCC(=O)NC2=O)C3=O)CN1Cc1ccccc1 (some centres unmarked)",
    "endpointUnit": "nM",
    "DC50": 189
  },
  {
    "molecule": "CO[C@@H]1CCCC[C@@H]1NCc1ccc2c(c1)CN(C1CCC(=O)NC1=O)C2=O (some centres unmarked)",
    "endpointUnit": "nM",
    "DC50": 16
  }
]

// fetch DC50 given entry O=C1CCC(N2Cc3cc(CNC45CCC(CO)(CC4)C5)ccc3C2=O)C(=O)N1 (centres unmarked)
218

// fetch DC50 given entry O=C1CCC(N2Cc3cc(CNC4CCCC(Cn5ncc6ccccc65)C4)ccc3C2=O)C(=O)N1 (centres unmarked)
48

// fetch DC50 given entry O=C1CCC(N2Cc3cc(CNC4CCN(Cc5ccccc5)C(=O)C4)ccc3C2=O)C(=O)N1 (centres unmarked) [Example 61]
1400

// fetch DC50 given entry CC[C@@H]1CCCC[C@H]1NCc1ccc2c(c1)CN(C1CCC(=O)NC1=O)C2=O (some centres unmarked)
115

// fetch DC50 given entry C[C@@H](NCc1ccc2c(c1)CN(C1CCC(=O)NC1=O)C2=O)c1ccccc1 (some centres unmarked)
260

// fetch DC50 given entry O=C1CCC(N2Cc3cc(CN[C@H]4CCC[C@@H](Nc5ccccc5)C4)ccc3C2=O)C(=O)N1 (some centres unmarked)
333

// fetch DC50 given entry O=C1CCC(N2Cc3cc(CNC4CCC5(CCC5)CC4)ccc3C2=O)C(=O)N1 (centres unmarked)
55

// fetch DC50 given entry CN(Cc1ccc2c(c1)CN(C1CCC(=O)NC1=O)C2=O)C1CCN(Cc2ccccc2)CC1 (centres unmarked)
328

// fetch DC50 given entry CC1CCC(C)(NCc2ccc3c(c2)CN(C2CCC(=O)NC2=O)C3=O)CC1 (centres unmarked)
87

// fetch DC50 given entry CCN1CCC(NCc2ccc3c(c2)CN(C2CCC(=O)NC2=O)C3=O)CC1 (centres unmarked)
2800

// fetch DC50 given entry CC1(NCc2ccc3c(c2)CN(C2CCC(=O)NC2=O)C3=O)CCCC1 (centres unmarked)
151

// fetch DC50 given entry CCCC[C@H]1CC[C@H](NCc2ccc3c(c2)CN(C2CCC(=O)NC2=O)C3=O)CC1 (some centres unmarked)
218
